Some binders, each annotated with its measured Maximum % inhibition.
TESTED_ON: T1, Human PCSK9 Alexa Fluor 647 (human, UniProt Q8NBP7 31-692, limits assumed, Alexa Fluor 647 label (site not stated))
T1 construct: Labelled tracer of the TR-FRET assay, 16 nM stock; also called proprotein convertase subtilisin/kexin type 9
ASSAY_NAME: TR-FRET competition: PCSK9-Alexa Fluor 647 vs LDLR ECD-Eu kryptate
Bridge positions count the residues as written; N and C are the ends. Square brackets hold non-standard residues; d marks the D form. Bip = N[C@@H](Cc1ccc(-c2ccccc2)cc1)C(=O)O; NMeA = CN[C@@H](C)C(=O)O
Value expressed in %; do not type the unit.

| BINDER | UNIT_LABEL | Maximum % inhibition |
| --- | --- | --- |
| FVSTTXAXAPSPCG (not fully specified; N-terminal acetyl (Ac*) joined by a sulfide bond to the side chain of Cys13 (cyclic); 6: L-Bip; 7: L-(N-Me)Ala; 8: L-Bip; 9: L-(N-Me)Ala; C-terminal amide (NH2), also called 1-20; Ex. No. 1-20) [Ac*-F-V-S-T-T-B-(N-Me)A-B-(N-Me)A-P-S-P-C*-G-NH2] | % | 35 |

Prompt line: # Maximum % inhibition lookup, item {CH2CO}-FVDTTS[NMeA][Bip][NMeA]KSPCG-NH2 (thioether N-13; SMILES CC(C)[C@@H]1NC(=O)[C@H](Cc2ccccc2)NC(=O)CSC[C@@H](C(=O)NCC(N)=O)NC(=O)[C@@H]2CCCN2C(=O)[C@H](CO)NC(=O)[C@H](CCCCN)NC(=O)[C@H](C)N(C)C(=O)[C@H](Cc2ccc(-c3ccccc3)cc2)NC(=O)[C@H](C)N(C)C(=O)[C@H](CO)NC(=O)[C@H]([C@@H](C)O)NC(=O)[C@H]([C@@H](C)O)NC(=O)[C@H](CC(=O)O)NC1=O, also called 1-7; Ex. No. 1-7) [Ac*-F-V-D-T-T-S-(N-Me)A-B-(N-Me)A-K-S-P-C*-G-NH2]
Response line: 60
